# Tested on: blackgrass (Alopecurus myosuroides)
# PROCEDURE SUMMARY: Test D controlled growth environment herbicide test, pre- and postemergence
# Format: in vivo
# EXPERIMENTAL PARAMETERS: Preemergence, 125 g ai/ha; scale 0 to 100 (0 no effect, 100 complete control)
# Source text: […]
Flag rule - Plant response rating, Blackgrass less than 70 flags 1; the remaining entries get 0.

Illustrative cases are given below, each with its answer.
{"SMILES CODE": "Cc1nn(C)c(=O)c(-c2c(C)sc3ccc(Br)cc23)c1O", "LABEL VALUE": 1}
{"SMILES CODE": "COC(=O)Oc1c(C)nn(C)c(=O)c1-c1c(C)sc2ccc(C)cc12", "LABEL VALUE": 0}
{"SMILES CODE": "CCCC(=O)Oc1c(C)nn(C)c(=O)c1-c1c(C)sc2ccc(C)cc12", "LABEL VALUE": 1}

Turning to the following compound.
# strict comparison: is reported Plant response rating, Blackgrass < 70? input = Cc1cc(C)c2sc(C)c(-c3c(O)c(C)nn(C)c3=O)c2c1
0
